Reported log10(TGI) values for the following molecules.
tested on: MDA-MB-468 breast; assay: NCI tumour cell line growth inhibition, 48 h
Log scale reminder: TGI in nM, then log10 taken.

Solved entries:
> print(dat)
                                   molecule     readout  measurement
1      CCN(Cc1cc(F)cc(F)c1)c1ccc(CO)c(Cl)c1  log10(TGI)         1.70
2  Cc1ccccc1[C@H]1C(C(=O)c2ccc(Cl)cc2)C2(N[C@@H]1c1ccccc1)C(=O)Nc1ccc(Cl)cc12 (stereo partly specified)  log10(TGI)         4.00

Query :: Requested read-out: log10(TGI). Entry: O=[N+]([O-])c1cc([N+](=O)[O-])c(NN=C(c2ccc(O)cc2)c2ccc(O)cc2)cc1Cl
Result :: 2.74

Query :: Requested read-out: log10(TGI). Entry: COc1cc(/C=C/[N+](=O)[O-])c([N+](=O)[O-])cc1OC
Result :: 3.36

Query :: Requested read-out: log10(TGI). Entry: O=C1C(=O)/C(=C/c2ccccc2)CCCCCC/C1=C/c1ccccc1
Result :: 4.25
